Tested system: M1 receptor (Rattus norvegicus)
Construct: expressed in transfected cells
Sequence (P08482 whole entry): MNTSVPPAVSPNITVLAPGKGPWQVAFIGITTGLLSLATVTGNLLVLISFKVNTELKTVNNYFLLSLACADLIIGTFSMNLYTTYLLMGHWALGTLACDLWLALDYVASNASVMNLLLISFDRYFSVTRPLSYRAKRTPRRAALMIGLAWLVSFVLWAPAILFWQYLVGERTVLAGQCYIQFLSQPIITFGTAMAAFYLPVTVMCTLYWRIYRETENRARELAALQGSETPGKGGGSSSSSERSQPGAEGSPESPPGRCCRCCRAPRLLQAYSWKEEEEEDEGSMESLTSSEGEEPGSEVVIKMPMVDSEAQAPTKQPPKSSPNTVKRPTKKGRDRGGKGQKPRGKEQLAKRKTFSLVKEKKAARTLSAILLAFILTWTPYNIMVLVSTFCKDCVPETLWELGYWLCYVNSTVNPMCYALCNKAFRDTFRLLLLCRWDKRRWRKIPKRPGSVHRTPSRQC
Assay overview: M1 PAM assay (FLIPR intracellular calcium), rat
Type: cell-based
Recorded metric: EC50 (µM)

Cn1cc(-c2ccc(Cn3cc(C(=O)N[C@H]4CCCC[C@@H]4O)c4ncccc43)cn2)cn1
0.071
CCCC(CO)NC(=O)c1cn(Cc2ccc(-c3cnn(C)c3)cc2F)c2cccnc12 (stereo not shown)
0.499
Cn1cc(-c2ccc(Cn3cc(C(=O)N[C@H]4CCCC[C@@]4(C)O)c4ncccc43)c(F)c2)cn1 (racemic)
0.0632
CC(C)[C@@H](CO)NC(=O)c1cn(Cc2ccc(-c3cnn(C)c3)cc2F)c2cccnc12
0.285
Cn1cc(-c2ccc(Cn3cc(C(=O)NCc4cccnc4)c4ncccc43)c(F)c2)cn1
1.06
CCC(CO)NC(=O)c1cn(Cc2ccc(-c3cnn(C)c3)cc2F)c2cccnc12 (stereo not shown)
0.632
COc1ccc(Cn2cc(C(=O)N[C@H]3CCCC[C@@H]3O)c3ncccc32)cc1F
0.598
Cn1cc(-c2ccc(Cn3cc(C(=O)N[C@@H]4CCCC[C@H]4O)c4ncccc43)c(F)c2)cn1
0.131
O=C(N[C@H]1CCCC[C@@H]1O)c1cn(Cc2ccc(-c3ccccc3)cc2)c2cccnc12
0.512
Cn1cc(-c2ccc(Cn3cc(C(=O)N[C@H]4CCCC[C@@H]4O)c4ncccc43)cc2)cn1
0.0139
Cc1ccc(Cn2cc(C(=O)N[C@H]3CCCC[C@@H]3O)c3ncccc32)cc1
0.611
Cn1cc(-c2ccc(Cn3cc(C(=O)N[C@H]4CCOC[C@@H]4O)c4ncccc43)cn2)cn1 (racemic)
0.133
Cn1cc(-c2ccc(Cn3cc(C(=O)N[C@H]4CCCC[C@]4(C)O)c4ncccc43)c(F)c2)cn1 (racemic)
0.264
NC(=O)c1ccc(Cn2cc(C(=O)N[C@H]3CCOC[C@@H]3O)c3ncccc32)cc1 (stereo in doubt) [Example 63b]
0.047
O=C(N[C@H]1CCCC[C@@H]1O)c1cn(Cc2ccc(C(F)(F)F)nc2)c2cccnc12
0.422
Cn1cc(-c2ccc(Cn3cc(C(=O)NCC(C)(C)O)c4ncccc43)c(F)c2)cn1
0.616

# credit: patent US9932335B2
